Each recorded value in this set is attributed to ChEMBL document CHEMBL5338747.

# Experiment description: Half-life in Sprague-Dawley rat at 1 mg/kg, iv by LC-MS analysis
# Format: ADME, organism-based
# Experimental parameters: in vivo
Measured property: half-life
Field: value (include unit after the number)

// half-life lookup, compound = C=C[C@]1(C)C[C@@H](OC(=O)CSc2nc(-c3cc[n+](Cc4ccc(C)cc4)cc3)cs2)[C@]2(C)[C@H](C)CC[C@]3(CCC(=O)[C@H]32)[C@@H](C)[C@@H]1O.[Br-] , result: 43.8 min

====

# Experiment description: Clearance in Sprague-Dawley rat at 1 mg/kg, iv by LC-MS analysis
# Type: ADME, organism-based
# Experimental parameters: in vivo
Measured property: clearance (mL/min/kg)
Field: numeric (mL/min/kg). Do not append units.

// clearance lookup, compound = C=C[C@]1(C)C[C@@H](OC(=O)CSc2nc(-c3cc[n+](Cc4ccc(C)cc4)cc3)cs2)[C@]2(C)[C@H](C)CC[C@]3(CCC(=O)[C@H]32)[C@@H](C)[C@@H]1O.[Br-] , result: 31.7
